molecular target: D(2) dopamine receptor (Homo sapiens, UniProt P14416); assay: Inhibition of human dopamine 2 receptor in presence of GTPgS
Sequence (P14416 whole entry): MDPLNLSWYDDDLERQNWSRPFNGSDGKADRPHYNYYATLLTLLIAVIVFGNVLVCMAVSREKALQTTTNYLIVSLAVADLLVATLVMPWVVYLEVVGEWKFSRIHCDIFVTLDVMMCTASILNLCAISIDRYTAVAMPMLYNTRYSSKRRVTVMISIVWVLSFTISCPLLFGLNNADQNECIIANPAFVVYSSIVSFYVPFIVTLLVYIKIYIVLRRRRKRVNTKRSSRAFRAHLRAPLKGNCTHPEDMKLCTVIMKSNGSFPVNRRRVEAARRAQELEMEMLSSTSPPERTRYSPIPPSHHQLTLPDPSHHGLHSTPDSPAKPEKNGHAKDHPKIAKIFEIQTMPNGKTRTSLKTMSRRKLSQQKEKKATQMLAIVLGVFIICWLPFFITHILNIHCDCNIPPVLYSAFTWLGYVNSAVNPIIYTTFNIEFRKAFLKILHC
pIC50: −log10 of the molar value.

COMPOUND_STRUCTURE_STRING | pIC50
CCNC(=O)C[C@@H]1N=C(c2ccc(Cl)cc2)c2cc(OC)ccc2-n2c(C)nnc21 | < 4.00

====

biological target: D(1A) dopamine receptor (Homo sapiens, UniProt P21728)
Sequence (P21728 whole entry): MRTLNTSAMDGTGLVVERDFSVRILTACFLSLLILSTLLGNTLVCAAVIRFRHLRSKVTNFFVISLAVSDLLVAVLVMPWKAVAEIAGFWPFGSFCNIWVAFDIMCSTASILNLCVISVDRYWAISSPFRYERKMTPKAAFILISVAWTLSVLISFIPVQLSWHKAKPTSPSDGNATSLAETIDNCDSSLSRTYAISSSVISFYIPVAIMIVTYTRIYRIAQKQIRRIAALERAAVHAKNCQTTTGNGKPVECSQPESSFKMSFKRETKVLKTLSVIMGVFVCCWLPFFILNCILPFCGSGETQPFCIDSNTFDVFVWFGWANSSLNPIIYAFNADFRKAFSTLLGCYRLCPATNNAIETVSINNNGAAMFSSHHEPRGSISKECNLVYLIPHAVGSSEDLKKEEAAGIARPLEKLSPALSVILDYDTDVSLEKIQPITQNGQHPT
OUTCOME_MEASURE: IC50

COMPOUND_STRUCTURE_STRING | MEASUREMENT_TARGET | OUTCOME_MEASURE | OBSERVED_VALUE
CCNC(=O)C[C@@H]1N=C(c2ccc(Cl)cc2)c2cc(OC)ccc2-n2c(C)nnc21 | D(1A) dopamine receptor (Homo sapiens, UniProt P21728) | IC50 | > 31.6 µM
